# target-under-test: Cytochrome P450 3A4 (Homo sapiens, UniProt P08684)
# Sequence (P08684 whole entry): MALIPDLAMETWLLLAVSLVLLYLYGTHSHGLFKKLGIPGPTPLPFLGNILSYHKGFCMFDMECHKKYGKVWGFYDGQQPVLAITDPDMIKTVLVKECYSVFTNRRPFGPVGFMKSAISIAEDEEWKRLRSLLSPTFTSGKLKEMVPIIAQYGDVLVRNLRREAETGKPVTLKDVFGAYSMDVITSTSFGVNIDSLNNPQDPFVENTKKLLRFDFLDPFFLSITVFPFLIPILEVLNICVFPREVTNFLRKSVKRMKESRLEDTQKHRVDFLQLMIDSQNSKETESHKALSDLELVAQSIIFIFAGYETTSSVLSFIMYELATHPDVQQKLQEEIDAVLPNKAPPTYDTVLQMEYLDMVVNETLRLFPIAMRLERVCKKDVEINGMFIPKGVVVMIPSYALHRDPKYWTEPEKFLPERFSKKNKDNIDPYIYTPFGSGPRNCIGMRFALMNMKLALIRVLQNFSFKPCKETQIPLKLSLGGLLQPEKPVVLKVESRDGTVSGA
# procedure-text: Time dependent inhibition of CYP3A4 assessed as conversion of testosterone to 6-beta-hydroxytestosterone preincubated for 30 mins
# Assay type: ADME
quantity-name: IC50 (µM)
Unit µM implied. Number only.

Request: Notebook entry, Cytochrome P450 3A4 (Homo sapiens, UniProt P08684) assay: IC50 of `COCCCc1cc(CN(C(=O)[C@H]2CNCC[C@@H]2c2ccn(C)c(=O)c2)C2CC2)cc(Br)c1C` = ?
Response: 16

---

# activity % at 10 µM annotations
# target-under-test: CYP3A4 (Homo sapiens, UniProt P08684)
# Sequence (P08684 whole entry): as above
# procedure-text: Reversible inhibition of CYP3A4 assessed as conversion of testosterone to 6-beta-hydroxytestosterone at 10 uM relative to control
# Type: ADME
# particulars: probe testosterone
Unit % implied. Number only.

These recorded examples may help you get a feel for the data.
COCCCc1cc(CN(C(=O)[C@H]2CNCC[C@@H]2c2cc(=O)n(C)c(C)c2C)C2CC2)cc(OCCOC)c1 :: 41
CC(=O)NCCc1cc(Cl)c(Cl)c(CN(C(=O)[C@H]2CNCC[C@@H]2c2ccn(C)c(=O)c2)C2CC2)c1 :: 97
COCCNc1cc(Cl)c(Cl)c(CN(C(=O)[C@H]2CNCC[C@@H]2c2ccn(C)c(=O)c2)C2CC2)c1 :: 71
COCCCn1cc(CN(C(=O)[C@H]2CNCC[C@@H]2c2ccn(C)c(=O)c2)C2CC2)c2c(F)cccc21 :: 41
Cn1ccc([C@H]2CCNC[C@@H]2C(=O)N(Cc2cn(Cc3ccccc3)c3cccc(F)c23)C2CC2)cc1=O :: 19
Cn1ccc([C@H]2CCNC[C@@H]2C(=O)N(Cc2cc(CCC#N)cc(Cl)c2Cl)C2CC2)cc1=O :: 52

Lab note: next compound to report on.
Request: Notebook entry, CYP3A4 (Homo sapiens, UniProt P08684) assay: activity % at 10 µM of `COCCCc1cc(Br)cc(CN(C(=O)[C@H]2CNCC[C@@H]2c2ccn(C)c(=O)c2)C2CC2)c1` = ?
Response: 15

Hey, just so you know, these numbers are from ChEMBL document CHEMBL1795332.
